MEASURED TARGET: human progesterone receptor B (Homo sapiens, UniProt P06401)
Construct: expressed in transfected cells; host or cells: SK-N-MC human neuroblastoma cells, stably transfected with pRChPR-B-neo and pMMTV-LUC
Sequence (P06401 whole entry): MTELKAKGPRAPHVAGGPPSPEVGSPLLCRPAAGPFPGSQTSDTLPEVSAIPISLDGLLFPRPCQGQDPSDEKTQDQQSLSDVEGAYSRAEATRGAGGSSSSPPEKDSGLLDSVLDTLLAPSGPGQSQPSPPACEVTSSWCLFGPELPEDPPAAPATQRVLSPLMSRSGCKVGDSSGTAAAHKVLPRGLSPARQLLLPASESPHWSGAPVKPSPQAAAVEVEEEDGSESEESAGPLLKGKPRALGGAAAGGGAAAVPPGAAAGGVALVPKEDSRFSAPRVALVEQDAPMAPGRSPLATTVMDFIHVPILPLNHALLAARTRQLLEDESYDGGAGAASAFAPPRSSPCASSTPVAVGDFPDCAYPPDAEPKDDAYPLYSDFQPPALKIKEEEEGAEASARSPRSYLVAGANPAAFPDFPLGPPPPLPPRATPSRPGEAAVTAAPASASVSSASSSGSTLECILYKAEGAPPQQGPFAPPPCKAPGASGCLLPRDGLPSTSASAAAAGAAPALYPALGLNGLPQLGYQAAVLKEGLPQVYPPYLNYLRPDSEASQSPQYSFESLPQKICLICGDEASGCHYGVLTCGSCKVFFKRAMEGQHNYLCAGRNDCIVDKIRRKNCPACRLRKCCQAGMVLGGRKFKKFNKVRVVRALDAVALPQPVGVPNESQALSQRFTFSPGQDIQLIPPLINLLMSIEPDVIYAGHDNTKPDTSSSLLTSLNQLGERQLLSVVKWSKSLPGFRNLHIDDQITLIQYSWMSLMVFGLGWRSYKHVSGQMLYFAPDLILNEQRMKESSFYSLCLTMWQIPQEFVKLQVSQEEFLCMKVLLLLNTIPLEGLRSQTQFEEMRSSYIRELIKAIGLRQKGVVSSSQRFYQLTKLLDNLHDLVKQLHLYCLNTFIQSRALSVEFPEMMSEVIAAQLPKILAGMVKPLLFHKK
PROTOCOL: Progesterone receptor transactivation test in stably transfected SK-N-MC cells (PR-B, MMTV-LUC reporter)
Type: cell-based
RUN PARAMETERS: 24 hours, in presence of 0.1 nmol/l promegestone, luciferase reporter, read-out: PR-B IC50 (antagonistic potency)
ASSAY METRIC: IC50 (nM)

Cc1nc2cc(COC(C)c3ccc(C4C[C@@]5(C)C(CC[C@@]5(O)C(F)(F)C(F)(F)F)C5CCC6=CC(=O)CCC6=C45)cc3)ccc2s1 (mixture of isomers) = 0.1
CC(OCC(=O)O)c1ccc([C@H]2C[C@@]3(C)C(CC[C@@]3(O)C(F)(F)C(F)(F)F)C3CCC4=CC(=O)CCC4=C32)cc1 (mixture of isomers) = 9.8
CC(OCC#N)c1ccc([C@H]2C[C@@]3(C)C(CC[C@@]3(O)C(F)(F)C(F)(F)F)C3CCC4=CC(=O)CCC4=C32)cc1 (mixture of isomers) = 0.1
C[C@]12C[C@H](c3ccc(CCOCCO)cc3)C3=C4CCC(=O)C=C4CC[C@H]3[C@@H]1CC[C@@]2(O)C(F)(F)C(F)(F)F = 0.1

P. CC(C)(C)OC(=O)COCCc1ccc([C@H]2C[C@@]3(C)[C@@H](CC[C@@]3(O)C(F)(F)C(F)(F)F)[C@@H]3CCC4=CC(=O)CCC4=C32)cc1
Q. C[C@]12C[C@H](c3ccc(CCOCC(=O)O)cc3)C3=C4CCC(=O)C=C4CC[C@H]3[C@@H]1CC[C@@]2(O)C(F)(F)C(F)(F)F
Inquiry: Which value of IC50 is numerically greater: that of P or that of Q ? Write down the label attached to your selection.
Reply text: Q

src = patent US9096640B2
